assayedTarget: UniProt:P60510
Sequence (P60510 whole entry): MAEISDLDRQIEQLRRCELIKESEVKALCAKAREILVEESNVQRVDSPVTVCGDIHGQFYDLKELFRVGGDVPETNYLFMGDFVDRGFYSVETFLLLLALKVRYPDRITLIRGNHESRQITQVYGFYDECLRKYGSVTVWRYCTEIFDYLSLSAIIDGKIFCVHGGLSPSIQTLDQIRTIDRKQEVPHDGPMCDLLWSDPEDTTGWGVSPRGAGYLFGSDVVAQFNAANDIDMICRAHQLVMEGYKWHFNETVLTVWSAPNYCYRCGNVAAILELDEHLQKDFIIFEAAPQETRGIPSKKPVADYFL
pIC50: −log10 of the molar value.

{"columns": ["compound", "pIC50"],
 "data": [
  ["C=C/C(=C/C(=O)C[C@H](C)C[C@@H](C)CC[C@H](O)[C@H](C)C(=O)C[C@@H](O)[C@H](C)[C@@H](C)OC(=O)C[C@@H](O)C1=C(C)C(=O)OC1=O)CC [TTN, Tautomycetin]", 7.35]
]}

* * *

assayedTarget: UniProtKB P67775
Sequence (P67775 whole entry): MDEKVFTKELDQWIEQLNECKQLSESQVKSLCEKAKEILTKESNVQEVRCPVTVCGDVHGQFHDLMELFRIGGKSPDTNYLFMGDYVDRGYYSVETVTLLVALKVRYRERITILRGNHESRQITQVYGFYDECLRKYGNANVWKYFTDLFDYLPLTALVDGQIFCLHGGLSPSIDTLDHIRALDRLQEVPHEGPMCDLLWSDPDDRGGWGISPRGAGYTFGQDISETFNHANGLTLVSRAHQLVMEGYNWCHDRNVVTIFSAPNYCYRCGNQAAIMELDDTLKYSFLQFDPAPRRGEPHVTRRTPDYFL
readoutName: IC50

{"columns": ["structure", "resultValue"],
 "data": [
  ["C=C/C(=C/C(=O)C[C@H](C)C[C@@H](C)CC[C@H](O)[C@H](C)C(=O)C[C@@H](O)[C@H](C)[C@@H](C)OC(=O)C[C@@H](O)C1=C(C)C(=O)OC1=O)CC", "5.3 nM"]
]}

* * *

assayedTarget: UniProt O00743
Sequence (O00743 whole entry): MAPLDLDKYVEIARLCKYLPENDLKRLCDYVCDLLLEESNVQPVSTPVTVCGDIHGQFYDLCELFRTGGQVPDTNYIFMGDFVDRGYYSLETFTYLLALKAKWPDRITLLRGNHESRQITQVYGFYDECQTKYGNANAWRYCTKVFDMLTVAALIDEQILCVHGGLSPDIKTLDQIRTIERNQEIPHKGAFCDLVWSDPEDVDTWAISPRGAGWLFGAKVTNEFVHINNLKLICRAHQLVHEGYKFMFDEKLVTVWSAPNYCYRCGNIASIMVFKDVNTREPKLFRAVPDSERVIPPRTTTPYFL

{"columns": ["structure", "IC50 (nM)"],
 "data": [
  ["C=C/C(=C/C(=O)C[C@H](C)C[C@@H](C)CC[C@H](O)[C@H](C)C(=O)C[C@@H](O)[C@H](C)[C@@H](C)OC(=O)C[C@@H](O)C1=C(C)C(=O)OC1=O)CC", 101]
]}
